Target: glucocorticoid receptor of rat hepatic cytoplasm (Rattus norvegicus)
Construct: centrifuge at 175000 g for 1 hour, and take out the supernatant liquid as reserve; from tissue; host or cells: liver cytosol (175000 g supernatant) of adrenalectomised female SD rats
Experiment: Competition inhibition of [3H]-dexamethasone binding in rat hepatic cytoplasm
Details: mean ± SD, n = 4
REPORTED METRIC: IC50

1) CC#C[C@]1(O)CC[C@H]2[C@@H]3CCC4=CC(=O)CCC4=C3[C@@H](c3ccc(N(C)C4CCCCC4)cc3)C[C@@]21C [Cymipristone]    2.6 nM

---

Test: in vitro
Settings: human, 50% toxic concentration CC50
REPORTED METRIC: CC50 at 96 h (µg/mL)

1) Cc1cn([C@H]2C[C@H](N=[N+]=[N-])[C@@H](CO)O2)c(=O)[nH]c1=O [AZT, zidovudine]    58.8

---

Assay: Cytotoxicity in MT-4 cell culture by cytopathic method (CPE)
Assay type: cell-based, human
Conditions: human, MT-4 cells infected with HIV-1 IIIB, read-out: Cytotoxicity TC50, CPE
REPORTED METRIC: CC50 (µM)

1) CC#C[C@]1(O)CC[C@H]2[C@@H]3CCC4=CC(=O)CCC4=C3[C@@H](c3ccc(N(C)C4CCCCC4)cc3)C[C@@]21C [Cymipristone]    15.5

---

Molecular target: androgen receptor (AR) (Homo sapiens, UniProt P10275)
Sequence (P10275 1-920): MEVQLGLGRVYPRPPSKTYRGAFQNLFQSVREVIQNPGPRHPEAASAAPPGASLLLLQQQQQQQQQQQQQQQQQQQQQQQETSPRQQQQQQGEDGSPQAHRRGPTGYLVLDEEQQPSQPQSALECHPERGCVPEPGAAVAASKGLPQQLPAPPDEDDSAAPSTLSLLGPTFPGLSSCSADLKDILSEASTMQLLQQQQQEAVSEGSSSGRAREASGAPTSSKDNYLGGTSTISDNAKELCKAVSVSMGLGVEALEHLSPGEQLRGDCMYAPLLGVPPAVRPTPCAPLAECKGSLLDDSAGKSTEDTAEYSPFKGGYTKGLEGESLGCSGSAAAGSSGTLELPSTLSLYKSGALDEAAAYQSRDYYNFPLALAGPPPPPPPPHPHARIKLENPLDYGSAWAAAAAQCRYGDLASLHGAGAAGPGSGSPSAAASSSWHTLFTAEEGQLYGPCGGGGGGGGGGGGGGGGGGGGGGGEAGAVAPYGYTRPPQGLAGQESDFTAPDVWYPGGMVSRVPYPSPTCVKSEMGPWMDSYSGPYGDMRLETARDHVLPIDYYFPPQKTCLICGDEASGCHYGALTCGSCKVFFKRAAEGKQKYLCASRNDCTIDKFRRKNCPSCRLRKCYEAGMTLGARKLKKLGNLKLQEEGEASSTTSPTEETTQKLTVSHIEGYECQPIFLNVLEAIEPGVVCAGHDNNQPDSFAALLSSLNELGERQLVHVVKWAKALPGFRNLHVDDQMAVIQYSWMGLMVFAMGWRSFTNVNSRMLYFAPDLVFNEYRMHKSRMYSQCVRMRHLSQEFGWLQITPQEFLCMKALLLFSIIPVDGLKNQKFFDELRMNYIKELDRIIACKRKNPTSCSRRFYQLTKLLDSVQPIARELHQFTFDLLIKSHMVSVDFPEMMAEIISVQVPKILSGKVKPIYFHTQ
pIC50: −log10 of the molar value.
REPORTED METRIC: pIC50

1. CC#C[C@]1(O)CC[C@H]2[C@@H]3CCC4=CC(=O)CCC4=C3[C@@H](c3ccc(N(C)C4CCCCC4)cc3)C[C@@]21C [Cymipristone]    7.16

---

Quick list: CC50 at 96 h per entry.
Experiment: MTT toxicity on PBMC infected by HIV-1 AZT-resistant strain 018c
Conditions: human, 50% toxic concentration CC50, Experiment 2
REPORTED METRIC: CC50 at 96 h (µg/mL)

1. Cc1cn([C@H]2C[C@H](N=[N+]=[N-])[C@@H](CO)O2)c(=O)[nH]c1=O [AZT, zidovudine]    77.9
2. CC#C[C@]1(O)CC[C@H]2[C@@H]3CCC4=CC(=O)CCC4=C3[C@@H](c3ccc(N(C)C4CCCCC4)cc3)C[C@@]21C [Cymipristone]    104
3. CC#C[C@]1(O)CC[C@H]2[C@@H]3CCC4=CC(=O)CCC4=C3[C@@H](c3ccc(N(C)C)cc3)C[C@@]21C [Mifepristone, mifepristone]    74.7

---

Assay: MTT toxicity on PBMC infected by HIV-1 AZT-resistant strain 018c
Conditions: human, 50% toxic concentration CC50, Average
The compounds listed here are annotated with their CC50 at 96 h.
REPORTED METRIC: CC50 at 96 h

1) CC#C[C@]1(O)CC[C@H]2[C@@H]3CCC4=CC(=O)CCC4=C3[C@@H](c3ccc(N(C)C)cc3)C[C@@]21C [Mifepristone, mifepristone]    89.9 µg/mL
2) Cc1cn([C@H]2C[C@H](N=[N+]=[N-])[C@@H](CO)O2)c(=O)[nH]c1=O [AZT, zidovudine]    74.3 µg/mL

---

Experiment: Cytotoxicity in MT-4 cell culture by MTT staining method
Type: cell-based, human
Details: human, MT-4 cells infected with HIV-1 IIIB; MT-4 cell culture, MTT staining; read-out: Cytotoxicity TC50, MTT
REPORTED METRIC: CC50 at 96 h

1) CC#C[C@]1(O)CC[C@H]2[C@@H]3CCC4=CC(=O)CCC4=C3[C@@H](c3ccc(N(C)C4CCCCC4)cc3)C[C@@]21C    60.9 µM

---

Molecular target: human glucocorticoid receptor (Homo sapiens, UniProt P04150)
Sequence (P04150 whole entry): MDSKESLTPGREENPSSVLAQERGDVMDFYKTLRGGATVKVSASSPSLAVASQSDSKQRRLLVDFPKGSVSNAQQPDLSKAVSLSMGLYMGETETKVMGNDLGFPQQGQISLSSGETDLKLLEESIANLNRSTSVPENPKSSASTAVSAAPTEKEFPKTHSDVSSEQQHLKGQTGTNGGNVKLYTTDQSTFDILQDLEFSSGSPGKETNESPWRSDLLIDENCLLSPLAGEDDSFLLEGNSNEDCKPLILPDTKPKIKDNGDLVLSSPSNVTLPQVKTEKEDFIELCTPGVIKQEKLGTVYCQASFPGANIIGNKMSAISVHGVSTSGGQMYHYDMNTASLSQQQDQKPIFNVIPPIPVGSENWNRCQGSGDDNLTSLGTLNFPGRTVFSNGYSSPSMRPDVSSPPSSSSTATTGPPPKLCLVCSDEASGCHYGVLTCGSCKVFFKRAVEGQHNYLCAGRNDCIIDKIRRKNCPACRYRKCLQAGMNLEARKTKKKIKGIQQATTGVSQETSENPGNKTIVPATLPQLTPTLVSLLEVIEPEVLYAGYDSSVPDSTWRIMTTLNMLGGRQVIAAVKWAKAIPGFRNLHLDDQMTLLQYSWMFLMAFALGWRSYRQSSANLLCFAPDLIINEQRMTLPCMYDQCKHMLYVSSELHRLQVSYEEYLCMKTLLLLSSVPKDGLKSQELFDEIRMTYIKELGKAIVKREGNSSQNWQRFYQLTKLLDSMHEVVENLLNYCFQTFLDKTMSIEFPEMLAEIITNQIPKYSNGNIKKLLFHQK
Assay: Antagonism on dexamethasone in CV-1 cells cotransfected with GR and luciferase reporter
REPORTED METRIC: IC50 (nM)

1. CC#C[C@]1(O)CC[C@H]2[C@@H]3CCC4=CC(=O)CCC4=C3[C@@H](c3ccc(N(C)C4CCCCC4)cc3)C[C@@]21C    0.26

---

Biological target: UniProt:Q92731
Assay: Binding activity on human nuclear receptor ERβ
Details: mean ± SD, n = 4
REPORTED METRIC: IC50 (µM)

1. CC#C[C@]1(O)CC[C@H]2[C@@H]3CCC4=CC(=O)CCC4=C3[C@@H](c3ccc(N(C)C4CCCCC4)cc3)C[C@@]21C    0.279

---

Assay: MTT toxicity on PBMC infected by HIV-1 AZT-sensitive strain 018a
Settings: human, 50% toxic concentration CC50, Experiment 2; PBMC, 018a
REPORTED METRIC: CC50 at 96 h (µg/mL)

1. CC#C[C@]1(O)CC[C@H]2[C@@H]3CCC4=CC(=O)CCC4=C3[C@@H](c3ccc(N(C)C)cc3)C[C@@]21C    97.8
2. CC#C[C@]1(O)CC[C@H]2[C@@H]3CCC4=CC(=O)CCC4=C3[C@@H](c3ccc(N(C)C4CCCCC4)cc3)C[C@@]21C    156

---

Biological target: human glucocorticoid receptor (GR) (Homo sapiens, UniProt P04150)
Sequence (P04150 whole entry): as above
pIC50: −log10 of the molar value.
REPORTED METRIC: pIC50

1) CC#C[C@]1(O)CC[C@H]2[C@@H]3CCC4=CC(=O)CCC4=C3[C@@H](c3ccc(N(C)C4CCCCC4)cc3)C[C@@]21C    9.35

---

Molecular target: estrogen receptor ERα (Homo sapiens, UniProt P03372)
Sequence (P03372 1-595): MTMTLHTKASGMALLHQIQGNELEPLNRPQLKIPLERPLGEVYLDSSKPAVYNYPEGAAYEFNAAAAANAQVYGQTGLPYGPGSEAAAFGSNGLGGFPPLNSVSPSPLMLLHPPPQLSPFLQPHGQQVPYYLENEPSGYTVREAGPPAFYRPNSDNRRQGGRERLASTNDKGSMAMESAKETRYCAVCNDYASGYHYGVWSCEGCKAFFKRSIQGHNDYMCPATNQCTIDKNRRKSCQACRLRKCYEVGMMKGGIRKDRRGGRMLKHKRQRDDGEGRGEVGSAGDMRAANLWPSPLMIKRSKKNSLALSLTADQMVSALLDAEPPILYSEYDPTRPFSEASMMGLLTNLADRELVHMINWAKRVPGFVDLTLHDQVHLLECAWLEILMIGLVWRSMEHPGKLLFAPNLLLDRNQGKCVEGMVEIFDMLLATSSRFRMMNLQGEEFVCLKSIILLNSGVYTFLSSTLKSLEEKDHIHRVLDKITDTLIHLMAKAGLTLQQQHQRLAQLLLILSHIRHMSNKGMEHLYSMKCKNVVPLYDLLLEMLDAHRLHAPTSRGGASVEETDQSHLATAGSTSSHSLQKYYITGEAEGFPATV
Assay: Binding activity on human nuclear receptor ERα
Settings: mean ± SD, n = 4
REPORTED METRIC: IC50 (nM)

1. CC#C[C@]1(O)CC[C@H]2[C@@H]3CCC4=CC(=O)CCC4=C3[C@@H](c3ccc(N(C)C4CCCCC4)cc3)C[C@@]21C [Cymipristone]    516
